The reported numbers originate from patent US20230312524A1.

# TARGET ENTITY: α1A-ARS (Homo sapiens, UniProt P35348)
# Sequence (P35348 1-466): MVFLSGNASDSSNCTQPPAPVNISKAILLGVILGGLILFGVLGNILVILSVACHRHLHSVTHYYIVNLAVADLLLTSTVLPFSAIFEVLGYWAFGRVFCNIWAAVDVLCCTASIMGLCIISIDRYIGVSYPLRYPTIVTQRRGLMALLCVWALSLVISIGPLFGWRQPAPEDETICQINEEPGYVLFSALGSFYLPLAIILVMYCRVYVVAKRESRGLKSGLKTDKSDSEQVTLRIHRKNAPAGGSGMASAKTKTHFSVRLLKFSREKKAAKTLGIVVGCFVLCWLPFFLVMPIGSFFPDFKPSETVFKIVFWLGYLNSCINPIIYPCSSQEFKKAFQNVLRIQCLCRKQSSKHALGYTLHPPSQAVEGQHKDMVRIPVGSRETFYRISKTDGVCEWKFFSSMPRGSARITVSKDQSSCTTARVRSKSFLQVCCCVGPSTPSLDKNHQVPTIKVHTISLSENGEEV
# METHOD: Calcium flux assay (Calcium 6 dye) in cells expressing an α1-AR
# Type: cell-based
pEC50: −log10 of the molar value.
In this section we review reported pEC50 values for a set of compounds.
ATTRIBUTE MEASURED: pEC50

QUERY SMILES: Cc1cccc(Cl)c1CC1=NCCN1
OBS VALUE: 6.01 to 8.00
--
QUERY SMILES: Cc1ccc(OC(F)(F)F)cc1CC1=NCCN1
OBS VALUE: 6.01 to 8.00
